Kindly supply the reported I10 μM/ICONTROL (mean ± SEM, %) Glu N2B values for the records listed here.
Biological target: GluN2B-containing NMDA receptors (Homo sapiens)
Test: Two-electrode voltage-clamp recordings from Xenopus laevis oocytes, GluN2B
Format: cell-based
Conditions: 10 μM test compound with glutamate 100 μM and glycine 30 μM; percent of response without compound; Tables 1-5
Description: Xenopus laevis oocytes were injected with cRNA encoding the NMDA receptor subunits. Two to seven days after injection, two-electrode voltage-clamp recordings were performed. Extracellular solutions were made from a solutions containing (in mM) 90 NaCl, 3 KCl, 10 HEPES, 0.5 BaCl2, 0.01 EDTA (pH 7.4 with NaOH). […] Potency was determined by adding increasing concentrations of test compound to saturating concentrations of glutamate (100 μM) and glycine (30 μM), and the response amplitude measured. […]

response.value for Cc1sc2ncn(CC(=O)c3cccs3)c(=O)c2c1-c1cccc(I)c1 [1 / 3-I—Ph / Me / 2-thiophene] (field: I10 μM/ICONTROL (mean ± SEM, %) Glu N2B) = 129 ± 4.5%

response.value for Cc1sc2ncn(CC(=O)N3CCCC3)c(=O)c2c1-c1ccc2c(c1)CCC2 [3,4-(CH2)3—Ph / Me] (field: I10 μM/ICONTROL (mean ± SEM, %) Glu N2B) = 176 ± 6.2%

response.value for Cc1sc2ncn(CC(=O)N3CCCC3)c(=O)c2c1-c1cc(F)cc(F)c1 [3,5-F—Ph / Me] (field: I10 μM/ICONTROL (mean ± SEM, %) Glu N2B) = 107 ± 2.7%

response.value for Cc1sc2ncn(Cc3cnnn3CCC3OCCCO3)c(=O)c2c1-c1cccc(Cl)c1 (field: I10 μM/ICONTROL (mean ± SEM, %) Glu N2B) = 89 ± 2.5%

response.value for CC(C)c1ccc(-c2csc3ncn(CC(=O)N4CCCC4)c(=O)c23)cc1 [4-^iPr—Ph / H] (field: I10 μM/ICONTROL (mean ± SEM, %) Glu N2B) = 121 ± 6.9%

response.value for Cc1sc2ncn(CCC(=O)O)c(=O)c2c1-c1cccc(Cl)c1 [2 / 3-Cl—Ph / Me / OH] (field: I10 μM/ICONTROL (mean ± SEM, %) Glu N2B) = 99 ± 0.6%

response.value for Cc1sc2ncn(CC(=O)N3CCCC3)c(=O)c2c1-c1cccc(-n2cncn2)c1 [3-1,2,4 triazolyl-Ph / Me] (field: I10 μM/ICONTROL (mean ± SEM, %) Glu N2B) = 110 ± 2.6%

response.value for CCOC(=O)CCn1cnc2sc(C)c(-c3cccc(Cl)c3)c2c1=O [2 / 3-Cl—Ph / Me / OEt] (field: I10 μM/ICONTROL (mean ± SEM, %) Glu N2B) = 107 ± 2.3%

response.value for CSc1ccc(-c2csc3ncn(CC(=O)N4CCCC4)c(=O)c23)cc1 [4-MeS—Ph / H] (field: I10 μM/ICONTROL (mean ± SEM, %) Glu N2B) = 102 ± 4.6%

response.value for Cc1sc2ncn(CC(=O)N3CCCC3)c(=O)c2c1-c1cccc(C#N)c1 [3-CN—Ph / Me] (field: I10 μM/ICONTROL (mean ± SEM, %) Glu N2B) = 147 ± 4.1%

response.value for Cc1sc2ncn(CC(=O)NCC(=O)O)c(=O)c2c1-c1ccc(Cl)cc1 [1 / 4-Cl—Ph / Me / —NHCH2COOH] (field: I10 μM/ICONTROL (mean ± SEM, %) Glu N2B) = 87 ± 1.3%

response.value for Cc1sc2ncn(CC(=O)N3CCCC3)c(=O)c2c1-c1ccc(OCc2ccccc2)cc1 [4-BnO—Ph / Me] (field: I10 μM/ICONTROL (mean ± SEM, %) Glu N2B) = 118 ± 5.2%

response.value for COC(=O)[C@@H]1CCCN1C(=O)Cn1cnc2sc(C)c(-c3ccc(Br)cc3)c2c1=O (field: I10 μM/ICONTROL (mean ± SEM, %) Glu N2B) = 109 ± 4.9%

response.value for CCOC(=O)CNC(=O)Cn1cnc2sc(C)c(-c3ccc(Br)cc3)c2c1=O [1 / 4-Br—Ph / Me / —NHCH2COOEt] (field: I10 μM/ICONTROL (mean ± SEM, %) Glu N2B) = 96 ± 2.1%

response.value for Cc1sc2ncn(CC(=O)N3CCCC3)c(=O)c2c1-c1cc(Br)cc(Br)c1 [3,5-Br—Ph / Me] (field: I10 μM/ICONTROL (mean ± SEM, %) Glu N2B) = 156 ± 5.2%

response.value for Cc1sc2ncn(CC(=O)N3CCCC3)c(=O)c2c1-c1cccc(N=[N+]=[N-])c1 [3-N3—Ph / Me] (field: I10 μM/ICONTROL (mean ± SEM, %) Glu N2B) = 176 ± 8.1%

response.value for Cc1sc2ncn(CC(=O)N3CCCC3)c(=O)c2c1-c1cc(I)cc(I)c1 [3,5-I—Ph / Me] (field: I10 μM/ICONTROL (mean ± SEM, %) Glu N2B) = 152 ± 8.8%

====

Kindly supply the reported EC50 values for the records listed here.
molecular target: GluN2B-containing NMDA receptors (Homo sapiens, UniProt Q13224); assay: Two-electrode voltage-clamp recordings from Xenopus laevis oocytes, GluN2B; conditions: Table 1; glutamate 100 μM, glycine 30 μM; Hill fit; read-out: EC50 Glu N2B
Sequence (Q13224 27-1484, other chains not shown): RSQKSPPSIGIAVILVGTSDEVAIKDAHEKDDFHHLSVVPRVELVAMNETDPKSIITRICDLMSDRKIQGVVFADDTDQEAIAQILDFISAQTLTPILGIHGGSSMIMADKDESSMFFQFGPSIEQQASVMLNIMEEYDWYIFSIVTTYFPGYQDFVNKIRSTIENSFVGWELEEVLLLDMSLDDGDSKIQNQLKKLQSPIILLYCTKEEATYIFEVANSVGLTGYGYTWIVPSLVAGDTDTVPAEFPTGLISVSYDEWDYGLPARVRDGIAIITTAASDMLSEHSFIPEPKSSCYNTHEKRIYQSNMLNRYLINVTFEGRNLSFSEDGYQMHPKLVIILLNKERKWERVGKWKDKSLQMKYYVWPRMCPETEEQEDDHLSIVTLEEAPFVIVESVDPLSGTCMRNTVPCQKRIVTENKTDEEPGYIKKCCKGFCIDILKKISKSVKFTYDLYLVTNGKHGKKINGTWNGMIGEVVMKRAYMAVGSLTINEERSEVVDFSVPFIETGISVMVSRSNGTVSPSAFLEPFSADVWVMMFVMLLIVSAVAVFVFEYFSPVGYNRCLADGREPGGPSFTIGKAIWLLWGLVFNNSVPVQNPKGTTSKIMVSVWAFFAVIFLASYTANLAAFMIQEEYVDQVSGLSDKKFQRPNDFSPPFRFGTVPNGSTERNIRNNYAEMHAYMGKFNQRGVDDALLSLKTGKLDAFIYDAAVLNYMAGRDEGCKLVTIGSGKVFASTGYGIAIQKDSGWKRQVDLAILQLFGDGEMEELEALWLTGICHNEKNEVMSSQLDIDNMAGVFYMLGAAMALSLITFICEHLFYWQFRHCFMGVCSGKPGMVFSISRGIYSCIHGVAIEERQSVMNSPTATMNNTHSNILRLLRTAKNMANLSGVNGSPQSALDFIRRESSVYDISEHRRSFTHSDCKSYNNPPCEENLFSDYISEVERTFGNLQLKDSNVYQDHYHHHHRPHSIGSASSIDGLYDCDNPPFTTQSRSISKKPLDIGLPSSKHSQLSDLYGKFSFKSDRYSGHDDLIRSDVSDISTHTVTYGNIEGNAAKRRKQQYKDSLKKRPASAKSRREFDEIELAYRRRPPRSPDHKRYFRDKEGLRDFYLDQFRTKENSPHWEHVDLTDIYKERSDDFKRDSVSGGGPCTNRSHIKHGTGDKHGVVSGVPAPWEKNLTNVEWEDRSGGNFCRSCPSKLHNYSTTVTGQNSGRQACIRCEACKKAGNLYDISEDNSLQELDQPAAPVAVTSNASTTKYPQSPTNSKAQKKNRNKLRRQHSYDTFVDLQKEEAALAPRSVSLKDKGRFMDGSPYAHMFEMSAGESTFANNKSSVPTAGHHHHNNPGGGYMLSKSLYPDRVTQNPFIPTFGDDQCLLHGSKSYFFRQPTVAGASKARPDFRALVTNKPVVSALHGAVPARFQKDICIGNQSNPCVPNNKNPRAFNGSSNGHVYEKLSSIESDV
State just the number; it will be interpreted in µM.

response.value for [N-]=[N+]=Nc1ccc(-c2csc3ncn(CC(=O)N4CCCC4)c(=O)c23)cc1 (field: EC50) = 88

response.value for O=C(Cn1cnc2scc(-c3ccc(Cl)cc3)c2c1=O)N1CCCC1 (field: EC50) = 46

response.value for Cc1sc2ncn(CC(=O)N3CCCC3)c(=O)c2c1-c1ccc(OCc2ccccc2)cc1 (field: EC50) = 11

response.value for Cc1sc2ncn(CC(=O)N3CCCC3)c(=O)c2c1-c1cc(I)cc(I)c1 (field: EC50) = 20

response.value for Cc1sc2ncn(CC(=O)N3CCCC3)c(=O)c2c1-c1ccc(Br)cc1 (field: EC50) = 11.3

response.value for Cc1sc2ncn(CC(=O)N3CCCC3)c(=O)c2c1-c1cccc([N+](=O)[O-])c1 (field: EC50) = 12

response.value for Cc1sc2ncn(CC(=O)N3CCCC3)c(=O)c2c1-c1cccc(Br)c1 (field: EC50) = 11

response.value for Cc1sc2ncn(CC(=O)N3CCCC3)c(=O)c2c1-c1ccc(Cl)cc1 (field: EC50) = 11

====

molecular target: GluN2D-containing NMDA receptors (Homo sapiens, UniProt O15399+Q05586); experiment: Two-electrode voltage-clamp recordings from Xenopus laevis oocytes, GluN2D; format: cell-based; conditions: Table 6; read-out: IC50 (μM) Glu N2D
Sequence (O15399 28-1336, other chains not shown): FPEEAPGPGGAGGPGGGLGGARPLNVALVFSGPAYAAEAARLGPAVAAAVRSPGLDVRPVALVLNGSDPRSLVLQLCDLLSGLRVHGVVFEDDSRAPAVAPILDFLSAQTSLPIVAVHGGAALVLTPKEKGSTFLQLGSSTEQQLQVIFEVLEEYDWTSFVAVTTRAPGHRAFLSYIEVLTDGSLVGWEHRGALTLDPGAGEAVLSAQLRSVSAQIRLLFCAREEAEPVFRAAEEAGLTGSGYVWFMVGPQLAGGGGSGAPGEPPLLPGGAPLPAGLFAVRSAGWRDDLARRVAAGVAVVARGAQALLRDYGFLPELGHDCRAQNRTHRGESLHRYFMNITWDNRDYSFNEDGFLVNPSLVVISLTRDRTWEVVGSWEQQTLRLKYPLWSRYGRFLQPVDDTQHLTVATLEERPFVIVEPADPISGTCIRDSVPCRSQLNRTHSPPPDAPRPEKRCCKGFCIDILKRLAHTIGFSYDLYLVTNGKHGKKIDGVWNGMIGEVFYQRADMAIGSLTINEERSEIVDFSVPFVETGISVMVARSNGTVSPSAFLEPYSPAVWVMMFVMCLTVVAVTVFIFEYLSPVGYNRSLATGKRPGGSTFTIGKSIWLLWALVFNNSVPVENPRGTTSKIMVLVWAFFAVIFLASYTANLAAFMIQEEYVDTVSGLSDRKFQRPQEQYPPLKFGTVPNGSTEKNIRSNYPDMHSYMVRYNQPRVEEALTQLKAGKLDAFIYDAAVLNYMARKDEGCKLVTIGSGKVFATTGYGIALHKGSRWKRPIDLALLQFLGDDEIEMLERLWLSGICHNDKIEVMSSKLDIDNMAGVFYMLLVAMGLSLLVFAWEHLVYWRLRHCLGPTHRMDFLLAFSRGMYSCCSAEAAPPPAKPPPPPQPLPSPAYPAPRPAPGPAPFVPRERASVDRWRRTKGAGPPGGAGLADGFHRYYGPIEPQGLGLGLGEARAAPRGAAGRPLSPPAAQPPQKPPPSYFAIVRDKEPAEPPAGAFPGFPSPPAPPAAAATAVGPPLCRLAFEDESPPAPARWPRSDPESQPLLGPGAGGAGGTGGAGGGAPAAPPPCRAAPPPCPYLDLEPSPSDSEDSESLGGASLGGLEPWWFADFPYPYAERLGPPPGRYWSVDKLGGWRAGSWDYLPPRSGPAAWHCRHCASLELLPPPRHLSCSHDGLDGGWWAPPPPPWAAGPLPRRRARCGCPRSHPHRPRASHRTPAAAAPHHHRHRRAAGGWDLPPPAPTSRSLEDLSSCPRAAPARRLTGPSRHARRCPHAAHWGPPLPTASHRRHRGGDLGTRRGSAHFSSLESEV
Experimental endpoint: IC50
Note: a bare number is incomplete; add the unit.

response.value for COCCN1Cc2c(sc(C)c2C)N(C(=O)c2ccc(OC)cc2)C1 (field: IC50) = 109 µM

response.value for COc1ccc(C(=O)N2CN(CC3CCCO3)Cc3c2sc(C)c3C)cc1 (centres unmarked) (field: IC50) = 35 µM

====

Kindly supply the reported EC50 values for the records listed here.
target: GluN2C-containing NMDA receptors (Homo sapiens); assay: Two-electrode voltage-clamp recordings from Xenopus laevis oocytes, GluN2C; conditions: Table 1; glutamate 100 μM, glycine 30 μM; Hill fit; read-out: EC50 Glu N2C
Sequence (Q14957 20-1233, other chains not shown): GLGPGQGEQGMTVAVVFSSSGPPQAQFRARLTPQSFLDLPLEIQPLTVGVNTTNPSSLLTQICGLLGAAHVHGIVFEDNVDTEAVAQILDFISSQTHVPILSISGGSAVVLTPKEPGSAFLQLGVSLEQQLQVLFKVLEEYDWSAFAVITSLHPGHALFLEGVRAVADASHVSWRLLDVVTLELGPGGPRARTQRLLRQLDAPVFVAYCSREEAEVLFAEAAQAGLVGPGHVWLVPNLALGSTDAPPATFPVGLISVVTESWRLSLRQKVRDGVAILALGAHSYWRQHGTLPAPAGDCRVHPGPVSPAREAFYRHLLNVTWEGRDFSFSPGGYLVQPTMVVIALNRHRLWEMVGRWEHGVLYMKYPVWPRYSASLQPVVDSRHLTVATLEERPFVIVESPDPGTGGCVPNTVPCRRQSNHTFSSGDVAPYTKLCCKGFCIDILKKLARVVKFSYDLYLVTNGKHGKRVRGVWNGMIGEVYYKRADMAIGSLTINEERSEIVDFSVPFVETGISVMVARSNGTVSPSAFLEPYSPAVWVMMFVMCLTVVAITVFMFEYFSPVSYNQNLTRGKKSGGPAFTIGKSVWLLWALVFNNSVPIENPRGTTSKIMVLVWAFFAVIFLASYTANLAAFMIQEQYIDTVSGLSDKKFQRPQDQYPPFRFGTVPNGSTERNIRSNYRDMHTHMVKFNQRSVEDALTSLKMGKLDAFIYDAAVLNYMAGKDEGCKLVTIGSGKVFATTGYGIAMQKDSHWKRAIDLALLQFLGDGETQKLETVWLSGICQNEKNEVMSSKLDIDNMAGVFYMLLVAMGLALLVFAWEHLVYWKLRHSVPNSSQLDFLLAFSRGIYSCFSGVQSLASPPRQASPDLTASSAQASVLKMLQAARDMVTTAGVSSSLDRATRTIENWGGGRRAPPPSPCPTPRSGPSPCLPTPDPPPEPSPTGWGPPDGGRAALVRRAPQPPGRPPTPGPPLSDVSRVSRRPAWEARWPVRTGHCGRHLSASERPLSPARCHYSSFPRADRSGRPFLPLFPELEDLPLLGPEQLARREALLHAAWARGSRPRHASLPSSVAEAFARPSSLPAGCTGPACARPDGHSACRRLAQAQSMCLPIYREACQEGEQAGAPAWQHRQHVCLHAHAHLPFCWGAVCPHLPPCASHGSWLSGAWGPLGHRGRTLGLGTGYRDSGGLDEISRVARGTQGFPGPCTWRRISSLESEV
State just the number; it will be interpreted in µM.

response.value for Cc1ccc(-c2c(C)sc3ncn(CC(=O)N4CCCC4)c(=O)c23)cc1C (field: EC50) = 27

response.value for Cc1sc2ncn(CC(=O)N3CCCC3)c(=O)c2c1-c1ccc(Br)c(Br)c1 (field: EC50) = 13

response.value for Cc1sc2ncn(CC(=O)N3CCCC3)c(=O)c2c1-c1cc(I)cc(I)c1 (field: EC50) = 35

response.value for Cc1sc2ncn(CC(=O)N3CCCC3)c(=O)c2c1-c1cccc(-n2ccnc2)c1 (field: EC50) = 191

====

Kindly supply the reported maximal potentiation Glu N2B values for the records listed here.
Target: GluN2B-containing NMDA receptors (Homo sapiens)
Experiment: Two-electrode voltage-clamp recordings from Xenopus laevis oocytes, GluN2B
Assay type: cell-based
Settings: Table 1; in brackets after EC50; percent of response without compound
Procedure: Xenopus laevis oocytes were injected with cRNA encoding the NMDA receptor subunits. Two to seven days after injection, two-electrode voltage-clamp recordings were performed. Extracellular solutions were made from a solutions containing (in mM) 90 NaCl, 3 KCl, 10 HEPES, 0.5 BaCl2, 0.01 EDTA (pH 7.4 with NaOH). […] Potency was determined by adding increasing concentrations of test compound to saturating concentrations of glutamate (100 μM) and glycine (30 μM), and the response amplitude measured. […]
State just the number; it will be interpreted in %.

response.value for Cc1sc2ncn(CC(=O)N3CCCC3)c(=O)c2c1-c1ccccc1 (field: maximal potentiation Glu N2B) = 153

response.value for Cc1sc2ncn(CC(=O)N3CCCC3)c(=O)c2c1-c1cccc(N=[N+]=[N-])c1 (field: maximal potentiation Glu N2B) = 295

response.value for Cc1sc2ncn(CC(=O)N3CCCC3)c(=O)c2c1-c1ccc(N=[N+]=[N-])cc1 (field: maximal potentiation Glu N2B) = 304

response.value for Cc1sc2ncn(CC(=O)N3CCCC3)c(=O)c2c1-c1cccc(I)c1 (field: maximal potentiation Glu N2B) = 249

response.value for Cc1sc2ncn(CC(=O)N3CCCC3)c(=O)c2c1-c1cc(F)cc(F)c1 (field: maximal potentiation Glu N2B) = 229

response.value for Cc1ccc(-c2csc3ncn(CC(=O)N4CCCC4)c(=O)c23)cc1 (field: maximal potentiation Glu N2B) = 226

response.value for Cc1sc2ncn(CC(=O)N3CCCC3)c(=O)c2c1-c1cccc(-n2ccnc2)c1 (field: maximal potentiation Glu N2B) = 261

response.value for Cc1sc2ncn(CC(=O)N3CCCC3)c(=O)c2c1-c1ccc(Br)c(Br)c1 (field: maximal potentiation Glu N2B) = 223

response.value for CCc1ccc(-c2csc3ncn(CC(=O)N4CCCC4)c(=O)c23)cc1 (field: maximal potentiation Glu N2B) = 223

response.value for Cc1sc2ncn(CC(=O)N3CCCC3)c(=O)c2c1-c1ccc(Cl)cc1 (field: maximal potentiation Glu N2B) = 223

response.value for Cc1sc2ncn(CC(=O)N3CCCC3)c(=O)c2c1-c1ccc(F)cc1 (field: maximal potentiation Glu N2B) = 213

response.value for O=C(Cn1cnc2scc(-c3ccc(I)cc3)c2c1=O)N1CCCC1 (field: maximal potentiation Glu N2B) = 262

response.value for O=C(Cn1cnc2scc(-c3ccc(Cl)cc3)c2c1=O)N1CCCC1 (field: maximal potentiation Glu N2B) = 314

response.value for CCOc1ccc(-c2c(C)sc3ncn(CC(=O)N4CCCC4)c(=O)c23)cc1 (field: maximal potentiation Glu N2B) = 147

response.value for Cc1sc2ncn(CC(=O)N3CCCC3)c(=O)c2c1-c1ccc2c(c1)CCC2 (field: maximal potentiation Glu N2B) = 275

response.value for Cc1sc2ncn(CC(=O)N3CCCC3)c(=O)c2c1-c1cccc(C(F)(F)F)c1 (field: maximal potentiation Glu N2B) = 282

response.value for Cc1sc2ncn(CC(=O)N3CCCC3)c(=O)c2c1-c1cc(Br)cc(Br)c1 (field: maximal potentiation Glu N2B) = 143
